In this section, each of the compounds is paired with its reported %Inh.
Test system: CSNK1E;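 further: KINOMEscan kinase panel screen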
Conditions: concentration: 1 μM,replicates: in singlicate; n = 1
metric.name: %Inh (%)

[
  {
    "compound": "C[C@@H]1CCN(C(=O)CC#N)C[C@@H]1N(C)c1ncnc2[nH]ccc12",
    "metric.name": "%Inh",
    "measurement.units": "%",
    "result.number": 0
  },
  {
    "compound": "Cl.Cl.Nc1nc(-c2ccc3c(N)n[nH]c3c2)cc(N2CCCC(NC(=O)c3ccccc3)C2)n1 (stereo not shown)",
    "metric.name": "%Inh",
    "measurement.units": "%",
    "result.number": 24
  },
  {
    "compound": "NC(=O)c1cc(-c2ccccc2)cc2c(C3CCNCC3)c[nH]c12",
    "metric.name": "%Inh",
    "measurement.units": "%",
    "result.number": 72
  },
  {
    "compound": "CCn1c(-c2nonc2N)nc2c(C#CC(C)(C)O)nc(OCCN)cc21.Cl.Cl",
    "metric.name": "%Inh",
    "measurement.units": "%",
    "result.number": 41
  },
  {
    "compound": "Nc1nc(Nc2ccccc2)cc(-c2ccc3c(N)n[nH]c3c2)n1",
    "metric.name": "%Inh",
    "measurement.units": "%",
    "result.number": 0
  },
  {
    "compound": "C=CC(=O)Nc1cc2c(Nc3ccc(F)c(Cl)c3)ncnc2cc1OCCCN1CCOCC1",
    "metric.name": "%Inh",
    "measurement.units": "%",
    "result.number": 26
  },
  {
    "compound": "Cc1cc2cn[nH]c2cc1-c1cccc2c(N)c(C(N)=O)nnc12",
    "metric.name": "%Inh",
    "measurement.units": "%",
    "result.number": 30
  },
  {
    "compound": "Cl.Oc1cc(-c2nc(-c3ccccc3)[nH]c2-c2ccncc2)ccc1Cl",
    "metric.name": "%Inh",
    "measurement.units": "%",
    "result.number": 77
  },
  {
    "compound": "CCN(CC)CCOc1ccc(Nc2ncc3cc(-c4c(Cl)cccc4Cl)c(=O)n(C)c3n2)cc1",
    "metric.name": "%Inh",
    "measurement.units": "%",
    "result.number": 60
  },
  {
    "compound": "O=C(NCCCN1CCOC1=O)c1cnc(NCc2cc(Cl)ccc2Cl)nc1NC1CCCC1",
    "metric.name": "%Inh",
    "measurement.units": "%",
    "result.number": 76
  }
]

These measurements were taken from paper PMC5540273.
